Test system: rice leafroller (Cnaphalocrocis medinalis)
Experiment: Insecticidal effect on rice leafroller (Test Example 3)
Format: in vivo
Conditions: 500 ppm, rice lamina dip, third-instar larvae, four days after inoculation, 25° C., humidity 70%
VALUE KIND: Insecticidal effect on rice leafroller (Test Example 3), judged grade

{"COMPOUND": "Cc1cc(OC(F)(F)F)ccc1NC(=O)c1ccccc1C(=O)NC(C)(C)C", "RESULT VALUE": "A (100)"}
{"COMPOUND": "Cc1cc(OC(F)(F)C(F)(Cl)Cl)ccc1NC(=O)c1c(I)cccc1C(=O)NC(C)C", "RESULT VALUE": "A (100)"}
{"COMPOUND": "CC(C)NC(=O)c1c(C(=O)Nc2ccc(OC(F)F)cc2)cccc1[N+](=O)[O-]", "RESULT VALUE": "A (100)"}
{"COMPOUND": "CC(C)NC(=O)c1c(F)cccc1C(=O)Nc1cccc(Cl)c1Cl", "RESULT VALUE": "A (100)"}
{"COMPOUND": "Cc1cc(OC(F)(F)F)ccc1NC(=O)c1c(I)cccc1C(=O)NC(C)C", "RESULT VALUE": "A (100)"}
{"COMPOUND": "Cc1cc(C(F)(F)C(F)(F)F)ccc1NC(=O)c1c(F)cccc1C(=O)NC(C)C", "RESULT VALUE": "A (100)"}
{"COMPOUND": "CC(C)NC(=O)c1c(C(=O)Nc2ccccc2)cccc1[N+](=O)[O-]", "RESULT VALUE": "A (100)"}
{"COMPOUND": "Cc1cc(SC(F)(F)C(F)(F)F)ccc1NC(=O)c1c(I)cccc1C(=O)NC(C)C", "RESULT VALUE": "A (100)"}
{"COMPOUND": "Cc1cc(Oc2ccc(C(F)(F)F)cc2Cl)ccc1NC(=O)c1cccc(F)c1C(=O)NC(C)C", "RESULT VALUE": "A (100)"}
{"COMPOUND": "Cc1cc(OC(F)F)ccc1NC(=O)c1c(Cl)cccc1C(=O)NC1CC1", "RESULT VALUE": "A (100)"}
{"COMPOUND": "Cc1cc(OC(F)(F)C(F)F)ccc1NC(=O)c1cccc(F)c1C(=O)NC(C)C", "RESULT VALUE": "A (100)"}
{"COMPOUND": "COc1ccc(NC(=O)c2cccc([N+](=O)[O-])c2C(=O)NC(C)C)c(C)c1", "RESULT VALUE": "A (100)"}
{"COMPOUND": "CC(C)NC(=O)c1c(C(=O)Nc2ccc(C(F)(C(F)(F)F)C(F)(F)F)cc2Cl)cccc1[N+](=O)[O-]", "RESULT VALUE": "A (100)"}
{"COMPOUND": "Cc1cc(OC(F)(F)C(F)Cl)ccc1NC(=O)c1c(F)cccc1C(=O)NC(C)C (centres unmarked)", "RESULT VALUE": "D (79-50)"}
{"COMPOUND": "Cc1cccc(Cl)c1NC(=O)c1cccc([N+](=O)[O-])c1C(=O)NC(C)C", "RESULT VALUE": "D (79-50)"}
{"COMPOUND": "Cc1cc(OC(F)(F)C(F)Cl)ccc1NC(=O)c1c(I)cccc1C(=O)NC(C)C (centres unmarked)", "RESULT VALUE": "A (100)"}
{"COMPOUND": "Cc1cc(OC(F)F)ccc1NC(=O)c1c(C(=O)NC(C)C)cccc1[S+]([O-])CC(F)(F)F (centres unmarked)", "RESULT VALUE": "C (89-80)"}
{"COMPOUND": "CC(C)NC(=O)c1c(C(=O)Nc2ccc(SC(F)(F)C(F)(F)Br)cc2)cccc1[N+](=O)[O-]", "RESULT VALUE": "A (100)"}
{"COMPOUND": "CC(C)NC(=O)c1c(F)cccc1C(=O)Nc1ccc(OC(F)(F)F)cc1Cl", "RESULT VALUE": "A (100)"}
{"COMPOUND": "CC(C)NC(=O)c1c(C(=O)Nc2ccc([N+](=O)[O-])cc2)cccc1[N+](=O)[O-]", "RESULT VALUE": "D (79-50)"}
{"COMPOUND": "CC(C)NC(=O)c1c(F)cccc1C(=O)Nc1ccc(C(F)(C(F)(F)F)C(F)(F)F)cc1", "RESULT VALUE": "A (100)"}
{"COMPOUND": "Cc1cc(OC(F)F)ccc1NC(=O)c1cccc(OC(F)F)c1C(=O)NC(C)C", "RESULT VALUE": "A (100)"}
{"COMPOUND": "Cc1c(Cl)ccc(NC(=O)c2cccc([N+](=O)[O-])c2C(=O)NC(C)C)c1C", "RESULT VALUE": "A (100)"}
{"COMPOUND": "CC(C)NC(=O)c1c(C(=O)Nc2ccc(C(F)(F)C(F)(F)F)cc2)cccc1[N+](=O)[O-]", "RESULT VALUE": "A (100)"}
{"COMPOUND": "CC(C)(C)NC(=O)c1c(Cl)cccc1C(=O)Nc1ccc(OC(F)(F)F)cc1", "RESULT VALUE": "A (100)"}
{"COMPOUND": "Cc1c(Cl)cccc1NC(=O)c1cccc([N+](=O)[O-])c1C(=O)NC(C)C", "RESULT VALUE": "D (79-50)"}
{"COMPOUND": "Cc1ccc(F)cc1NC(=O)c1cccc([N+](=O)[O-])c1C(=O)NC(C)C", "RESULT VALUE": "A (100)"}
{"COMPOUND": "CCCCc1ccc(NC(=O)c2cccc([N+](=O)[O-])c2C(=O)NC(C)C)cc1", "RESULT VALUE": "C (89-80)"}
{"COMPOUND": "CC(C)NC(=O)c1c(F)cccc1C(=O)Nc1ccc(Oc2ccc(C(F)(F)F)cc2Cl)cc1F", "RESULT VALUE": "A (100)"}
{"COMPOUND": "CC(C)NC(=O)c1cccc(F)c1C(=O)Nc1cccc(Cl)c1Cl", "RESULT VALUE": "A (100)"}
{"COMPOUND": "Cc1cc(OC(F)(F)Br)ccc1NC(=O)c1c(F)cccc1C(=O)NC(C)C", "RESULT VALUE": "A (100)"}
